B1: library; numbered along this chain (parent)
chain: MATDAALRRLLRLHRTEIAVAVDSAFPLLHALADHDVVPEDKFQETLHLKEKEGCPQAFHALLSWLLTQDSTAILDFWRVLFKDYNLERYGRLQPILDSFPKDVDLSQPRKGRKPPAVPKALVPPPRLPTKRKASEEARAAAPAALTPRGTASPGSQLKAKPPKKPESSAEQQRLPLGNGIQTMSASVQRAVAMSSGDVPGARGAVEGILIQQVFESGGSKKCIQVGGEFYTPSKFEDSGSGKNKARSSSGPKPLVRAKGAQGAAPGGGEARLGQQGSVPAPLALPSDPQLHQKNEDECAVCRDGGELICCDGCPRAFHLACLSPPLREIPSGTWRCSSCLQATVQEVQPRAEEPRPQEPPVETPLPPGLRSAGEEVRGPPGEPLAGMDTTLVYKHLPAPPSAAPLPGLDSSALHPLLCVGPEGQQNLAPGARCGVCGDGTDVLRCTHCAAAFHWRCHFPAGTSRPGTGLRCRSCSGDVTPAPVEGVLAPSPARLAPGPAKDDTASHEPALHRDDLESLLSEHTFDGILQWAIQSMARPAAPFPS

- Variants of: B1
- measurement.notes: AIRE transcriptional activation functional score (insulin promoter-GFP; nonsense median 0, synonymous median 1) (normalised score); higher = higher AIRE activity (more reporter activation)
- measurement.setup: with insulin promoter-GFP reporter in HEK293
// no (0) strictly below 0.8 in AIRE transcriptional activation functional score; yes (1) otherwise

Past entries and their recorded results:
var=T480D assigned_class="no (0)"
var=D105R assigned_class="no (0)"
var=M184V assigned_class="no (0)"
var=I309P assigned_class="yes (1)"
var=P499N assigned_class="no (0)"

Please turn your attention to the following entry.
Q. Check if AIRE transcriptional activation functional score >= 0.8 (inclusive). Item: L29R
A. no (0)
